// data source = paper PMC7084598

- Tested on: MCF-7 (breast carcinoma)
- Method Summary: CCK-8 antiproliferative assay, MCF-7
- Type: cell-based
- Run Parameters: Homo sapiens, MCF7, 48 h, CCK8, mean of three independent experiments, NA = no activity, read-out: Inhibitory Ratio (Mean% ± SD%) MCF-7
- Protocol: All the thirty-six target derivatives (5a–5f, 10a–10o, and 12a–12o) were screened for antiproliferative activities against three human cancer cell lines (MCF-7, PC-3, and HepG2) and cytotoxicity on a normal human cell (THLE-2) at the concentration of 20 μM by using the CCK8 assay. […]
Would you mind labelling by inhibition at 20 µM? At or over 8% is Yes, under is No.

Compound: CC(O)C1CCC2C3CC=C4C(C)(C)c5nc(C(=O)NC6CCCCC6)cnc5CC4(C)C3CCC12C (centres unmarked) [Compound 12o]
Group: Yes
//
Compound: CC(O)C1CCC2C3CC=C4C(C)(C)c5nc(C(=O)NCCc6ccccc6)cnc5CC4(C)C3CCC12C (centres unmarked) [Compound 12n]
Group: Yes
//
Compound: CC(O)C1CCC2C3CC=C4C(C)(C)c5nc(C(=O)Nc6cccc(Cl)c6)cnc5CC4(C)C3CCC12C (centres unmarked) [Compound 12i]
Group: Yes
//
Compound: CC1(C)C2=CCC3C(CC[C@@]4(C)C3CC[C@@H]4C(=O)O)[C@@]2(C)Cc2nc3cc(Br)ccc3nc21 (some centres unmarked)
Group: No

* * *

- Tested on: HepG2 (liver hepatocellular carcinoma)
- Method Summary: CCK-8 antiproliferative assay, HepG2
- Type: cell-based
- Run Parameters: Homo sapiens, 48 h, CCK8, mean of three independent experiments, NA = no activity, read-out: Inhibitory Ratio (Mean% ± SD%) HepG2
# Lookup of reported inhibition at 20 µM keyed by entry
Readout Label: inhibition at 20 µM (%)

Molecule: CC(O)C1CCC2C3CC=C4C(C)(C)c5nc6cc(F)ccc6nc5CC4(C)C3CCC12C (stereo not shown) [Compound 10d]
Assay System: HepG2 (liver hepatocellular carcinoma)
Readout Label: inhibition at 20 µM
Measured Number: 22.4
--
Molecule: Cc1ccccc1NC(=O)c1cnc2c(n1)C(C)(C)C1=CCC3C(CCC4(C)C(C(C)O)CCC34)C1(C)C2 (stereo not shown) [Compound 12b]
Assay System: HepG2 (liver hepatocellular carcinoma)
Readout Label: inhibition at 20 µM
Measured Number: 15.2
--
Molecule: CC(O)C1CCC2C3CC=C4C(C)(C)c5nccnc5CC4(C)C3CCC12C (stereo not shown) [Compound 10a]
Assay System: HepG2 (liver hepatocellular carcinoma)
Readout Label: inhibition at 20 µM
Measured Number: 6.2
--
Molecule: CC(O)C1CCC2C3CC=C4C(C)(C)c5nc6ccccc6nc5CC4(C)C3CCC12C (stereo not shown) [Compound 10b]
Assay System: HepG2 (liver hepatocellular carcinoma)
Readout Label: inhibition at 20 µM
Measured Number: 7.24
--
Molecule: CC(O)C1CCC2C3CC=C4C(C)(C)c5nc(C(=O)Nc6ccccc6)cnc5CC4(C)C3CCC12C (stereo not shown) [Compound 12a]
Assay System: HepG2 (liver hepatocellular carcinoma)
Readout Label: inhibition at 20 µM
Measured Number: 12.5
--
Molecule: CC(O)C1CCC2C3CC=C4C(C)(C)c5nc(C(=O)Nc6ccc(Cl)cc6)cnc5CC4(C)C3CCC12C (stereo not shown) [Compound 12j]
Assay System: HepG2 (liver hepatocellular carcinoma)
Readout Label: inhibition at 20 µM
Measured Number: 23.1
--
Molecule: Cc1cccc(NC(=O)c2cnc3c(n2)C(C)(C)C2=CCC4C(CCC5(C)C(C(C)O)CCC45)C2(C)C3)c1 (stereo not shown) [Compound 12c]
Assay System: HepG2 (liver hepatocellular carcinoma)
Readout Label: inhibition at 20 µM
Measured Number: 7.02
--
Molecule: CC(O)C1CCC2C3CC=C4C(C)(C)c5nc6ccc(Cl)cc6nc5CC4(C)C3CCC12C (stereo not shown) [Compound 10e]
Assay System: HepG2 (liver hepatocellular carcinoma)
Readout Label: inhibition at 20 µM
Measured Number: 25.6
--
Molecule: CC1(C)C2=CCC3C(CC[C@@]4(C)C3CC[C@@H]4C(=O)O)[C@@]2(C)Cc2nccnc21 (stereo partly shown) [Compound 5a]
Assay System: HepG2 (liver hepatocellular carcinoma)
Readout Label: inhibition at 20 µM
Measured Number: 17.9
--
Molecule: CC1(C)C2=CCC3C(CC[C@@]4(C)C3CC[C@@H]4C(=O)O)[C@@]2(C)Cc2nc3ccc(O)cc3nc21 (stereo partly shown) [Compound 5f]
Assay System: HepG2 (liver hepatocellular carcinoma)
Readout Label: inhibition at 20 µM
Measured Number: 24.9
--
Molecule: COc1ccc2nc3c(nc2c1)CC1(C)C(=CCC2C1CCC1(C)C(C(C)O)CCC21)C3(C)C (stereo not shown) [Compound 10k]
Assay System: HepG2 (liver hepatocellular carcinoma)
Readout Label: inhibition at 20 µM
Measured Number: 29.3
--
Molecule: COc1ccc2nc3c(nc2c1)C(C)(C)C1=CCC2C(CCC4(C)C(C(C)O)CCC24)C1(C)C3 (stereo not shown) [Compound 10l]
Assay System: HepG2 (liver hepatocellular carcinoma)
Readout Label: inhibition at 20 µM
Measured Number: 33.3
--
Molecule: O=c1[nH]cc(F)c(=O)[nH]1 [Compound 5-FU, 5-fluorouracil, reference compound]
Assay System: HepG2 (liver hepatocellular carcinoma)
Readout Label: inhibition at 20 µM
Measured Number: 47.7
